tested on: ACHN renal; assay: NCI-60 one-dose screen, 48 h (100 = growth as untreated, 0 = no growth, -100 = all killed); details: 10 µM
Compounds without any hit were thinned out: in the full panel of roughly 83,000, 20% have a hit.
measurement-type: growth (%)
# number only, unit % dropped from output

Tested on ACHN renal: CN(C)Cc1cc(C(C)(C)CC(C)(C)C)ccc1O . Observed growth: 82.4

Tested on ACHN renal: COc1ccc(-c2cc3c(nn2)-c2ccccc2C3=O)cc1 . Observed growth: 73.5

Tested on ACHN renal: CC1CCC2C(C)(C)C3CC12CC1OC13C (stereo not drawn) . Observed growth: 103

Tested on ACHN renal: CCCC1(c2ccccc2)NC(=O)NC1=O (stereo not drawn) . Observed growth: 103

Tested on ACHN renal: Cc1c(O)cccc1O . Observed growth: 107

Tested on ACHN renal: O=[N+]([O-])c1ccc(O)c(S(=O)(=O)O)c1 . Observed growth: 95.2

Tested on ACHN renal: CC(=O)c1cc2c(cc1F)C(C)(C)CCC2(C)C . Observed growth: 91.9

Tested on ACHN renal: C[N+](C)=c1ccc2nc3c(cc(Nc4ccccc4)c4ccccc43)oc-2c1 . Observed growth: 82.1

Tested on ACHN renal: COC(=O)Nc1nc2ccc(C(=O)c3ccc(F)cc3)cc2[nH]1 . Observed growth: 33.2

Tested on ACHN renal: C=C[Si](OC(C)=O)(OC(C)=O)OC(C)=O . Observed growth: 97.3

Tested on ACHN renal: O=C(NCCNC(=O)c1ccc(Cl)cc1Cl)c1ccc(Cl)cc1Cl . Observed growth: 110

Tested on ACHN renal: COC(=O)Nc1cccc(Cl)c1OC . Observed growth: 99.8

Tested on ACHN renal: CCOC(=O)C1=C(C)NC(=O)NC1c1cccs1 (stereo not drawn) . Observed growth: 113

---

system: LOX IMVI melanoma; assay: NCI-60 one-dose screen, 48 h (100 = growth as untreated, 0 = no growth, -100 = all killed); conditions: 10 µM
This is part of a sample that, as a whole, favours compounds with a hit. Of some 83,000 tested, about 20% had one in any assay.
measurement-type: growth (%)
# number only, unit % dropped from output

So for Cn1cnc2nc(Cl)nc(Cl)c21 , the logged growth turned out to be 18.1

So for C=CCNc1nnc(C)s1 , the logged growth turned out to be 97.8

So for COS(=O)(=O)c1ccc(Br)cc1 , the logged growth turned out to be 97.2

So for COC(=O)/C=C1\Sc2cc(F)ccc2NC1=O , the logged growth turned out to be 93.4

So for CC1CCCC(CC(N)=O)CC1 (configuration not stated) , the logged growth turned out to be 101

So for O=C(N/N=C/c1ccccc1O)Nc1nn[nH]n1 , the logged growth turned out to be 96.4

So for COc1ccc(Oc2c(I)cc(CC(NC(C)=O)C(=O)O)cc2I)cc1 (configuration not stated) , the logged growth turned out to be 70

---

System: SW-620 colon
Assay: NCI-60 one-dose screen, 48 h (100 = growth as untreated, 0 = no growth, -100 = all killed)
Conditions: 10 µM
Method: Growth inhibition of the SW-620 human tumor cell line is measured as a screen for anti-cancer activity. Cells are grown in 96 well plates and exposed to the test compound for 48 hours. Compounds are tested at a single concentration, which is 10^-5 M for most compounds. The reported endpoint is percent growth (GI% or GIPRCNT), where numbers from 0 - 100% represent growth inhibition, and numbers from -100% - 0 represent cell death. For example, a value of 40 represents 60% growth inhibition. […]
The panel holds about 83,000 compounds, 20% with a hit somewhere; the sample as a whole holds those more often. Active and inactive are the calls of the source. How the source made its calls: active means growth percent below 10; inactive means the rest.
Provide the recorded growth for the entries that follow.

So for CCOc1ccc(/C=C/C(=O)c2ccccc2)cc1 , the logged growth turned out to be 96.4% (inactive)

So for CC(=O)Nc1ccc(NC(C)=O)c2c1C(=O)c1ccccc1C2=O , the logged growth turned out to be 91% (inactive)

So for CC(C)CCOC(=O)c1ccccc1 , the logged growth turned out to be 108% (inactive)

So for CC(C)(O)C#CC#CC(C)(C)O , the logged growth turned out to be 104% (inactive)

So for N#CCc1ccc([N+](=O)[O-])cc1 , the logged growth turned out to be 94.5% (inactive)

So for CC1(C)S(=O)(=O)OCCOS1(=O)=O , the logged growth turned out to be 101% (inactive)

So for O=C(NCc1ccco1)Nc1c(Cl)cc(Cl)cc1Cl , the logged growth turned out to be 102% (inactive)

So for Cc1cc(NC(=O)CSCC(=O)O)no1 , the logged growth turned out to be 102% (inactive)

So for Cc1cccc(C(=O)N(C(C)C)C(C)C)c1 , the logged growth turned out to be 96.4% (inactive)

So for O=C(O)C(O)c1ccccc1 (centres undefined) , the logged growth turned out to be 107% (inactive)

So for CC(=O)Nc1cccc(Cl)c1C , the logged growth turned out to be 101% (inactive)

So for N#C/C(=C\c1cc(O)c(O)c(O)c1)C(N)=O , the logged growth turned out to be 116% (inactive)

So for C/C(O)=C(\C=N\C(N)=S)C(=O)Nc1ccccc1 , the logged growth turned out to be 110% (inactive)

So for CC(CC(=O)c1ccccc1)c1ccccc1 (centres undefined) , the logged growth turned out to be 102% (inactive)
